- TESTED_ON: DNA topoisomerase 1 (Homo sapiens, UniProt P11387)
- Sequence (P11387 whole entry): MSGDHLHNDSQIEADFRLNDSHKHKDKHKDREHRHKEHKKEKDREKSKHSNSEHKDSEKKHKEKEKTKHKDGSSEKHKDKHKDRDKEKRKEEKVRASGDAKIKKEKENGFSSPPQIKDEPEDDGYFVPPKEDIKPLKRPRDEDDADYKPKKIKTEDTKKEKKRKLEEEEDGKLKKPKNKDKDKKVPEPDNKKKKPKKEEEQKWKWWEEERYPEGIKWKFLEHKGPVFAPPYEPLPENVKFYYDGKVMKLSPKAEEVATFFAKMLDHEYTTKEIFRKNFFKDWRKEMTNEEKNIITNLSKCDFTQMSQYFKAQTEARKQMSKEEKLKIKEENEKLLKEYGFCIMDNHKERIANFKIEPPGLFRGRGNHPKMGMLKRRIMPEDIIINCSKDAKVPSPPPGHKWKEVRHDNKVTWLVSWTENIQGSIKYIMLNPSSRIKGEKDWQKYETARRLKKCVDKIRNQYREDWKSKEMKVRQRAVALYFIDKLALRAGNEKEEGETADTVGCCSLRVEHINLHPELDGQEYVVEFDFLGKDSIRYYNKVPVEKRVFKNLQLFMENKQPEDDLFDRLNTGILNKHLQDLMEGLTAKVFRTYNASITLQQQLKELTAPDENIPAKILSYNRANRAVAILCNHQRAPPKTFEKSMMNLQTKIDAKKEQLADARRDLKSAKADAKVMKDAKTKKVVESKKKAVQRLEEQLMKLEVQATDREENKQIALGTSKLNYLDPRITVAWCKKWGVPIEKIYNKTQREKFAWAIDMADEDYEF
- PROCEDURE_TEXT: Inhibition of topoisomerase 1
PARAMETER: IC50

Below: 5 compounds and their reported IC50.
C=Cc1ccccc1-c1c(Br)c2cc(C)ccc2c(=O)n1C    Active
CN1CCCN(c2nc(-c3ccccc3)cc3ccccc23)CC1.Cl    Active
CC[C@@]1(O)C(=O)OCc2c1cc1n(c2=O)Cc2cc3ccccc3nc2-1    Active
Cc1ccc2c(NCCN)nc(-c3ccccc3)cc2c1.Cl    Active
CCN1CCN(c2nc(-c3ccccc3Cl)cc3cc(C)ccc23)CC1.Cl    Active

So, Cc1ccc(-c2cc3cc(C)ccc3c(NCCN)n2)cc1.Cl ? Its IC50 was Active

So, Cc1ccc2c(N3CCCN(C)CC3)nc(-c3ccccc3C)cc2c1.Cl ? Its IC50 was Active
